biological target: HLA-A*03:01; experiment: IEDB peptide-MHC binding, purified MHC/competitive/fluorescence; bounds were set here for any values at or beyond the usual limits of such assays; conditions: source organism: Zaire ebolavirus
measurement label: IC50 (µM)
Write the answer as a number in µM, unit excluded.

ITAASLPKT; 30.4

# IC50 of "VVFSTSDGK" = 4.54

Measured IC50 of "TVAPPAPVY" : 6.32

Just so you know, measured IC50 for "TIYTSGKRS" came out at 37.4

====

target: HLA-A*68:02; experiment: IEDB peptide-MHC binding, purified MHC/competitive/fluorescence; filed as Kd, often an IC50 or EC50 that approximates it; bounds were set here for any values at or beyond the usual limits of such assays; conditions: source organism: Bacillus anthracis str. A0488
measurement label: Kd (nM)
Give the value, in units of nM, as a plain number.

Lab note: measured Kd of "REFEAQNVP" was 2190

====

target: HLA-A*31:01; test: IEDB peptide-MHC binding, purified MHC/direct/fluorescence; filed as Kd, often an IC50 or EC50 that approximates it; bounds were set here for any values at or beyond the usual limits of such assays; settings: source organism: Yellow fever virus
measurement label: Kd

Record "FHKRDMRLL" . Reported Kd: ≥ 20 µM

====

target: HLA-B*35:01; experiment: IEDB peptide-MHC binding, purified MHC/direct/fluorescence; filed as Kd, often an IC50 or EC50 that approximates it; bounds were set here for any values at or beyond the usual limits of such assays; details: source organism: Squirrelpox virus
measurement label: Kd (nM)
Number in nM, nothing else.

Value sought: Kd, system HLA-B*35:01, item "MACHRVLTY" . Result: 21

====

target: HLA-A*02:19; test: IEDB peptide-MHC binding, purified MHC/competitive/fluorescence; filed as Kd, often an IC50 or EC50 that approximates it; bounds were set here for any values at or beyond the usual limits of such assays; settings: source organism: Giardia lamblia ATCC 50803
measurement label: Kd

Short answer for "DEYGPVFVE" : Kd was ≥ 20 µM

====

target: HLA-B*44:03; experiment: IEDB peptide-MHC binding, purified MHC/competitive/radioactivity; filed as Kd, often an IC50 or EC50 that approximates it; bounds were set here for any values at or beyond the usual limits of such assays; conditions: source organism: Dengue virus 2 Thailand/NGS-C/1944
measurement label: pKd
Just so you know, pKd here is -log10 of the concentration in molar units; reply with that number alone.

Entry "NEMVLLQMEN" — recorded pKd = 5.84

====

target: HLA-A*69:01; test: IEDB peptide-MHC binding, purified MHC/direct/fluorescence; filed as Kd, often an IC50 or EC50 that approximates it; bounds were set here for any values at or beyond the usual limits of such assays; conditions: source organism: Squirrelpox virus
measurement label: Kd

For this sequence ( "MACHRVLTY" ), measured Kd is ≥ 20 µM

====

molecular target: HLA-A*02:06; assay: IEDB peptide-MHC binding, purified MHC/competitive/fluorescence; filed as Kd, often an IC50 or EC50 that approximates it; bounds were set here for any values at or beyond the usual limits of such assays; conditions: source organism: Mycobacterium tuberculosis variant bovis BCG str. Pasteur 1173P2
measurement label: Kd

The sequence identified as "RPRLHSISF" registered its Kd at ≥ 20 µM

====

target: HLA-C*14:02; test: IEDB peptide-MHC binding, purified MHC/competitive/fluorescence; filed as Kd, often an IC50 or EC50 that approximates it; bounds were set here for any values at or beyond the usual limits of such assays; settings: source organism: Coxiella burnetii Dugway 5J108-111
measurement label: Kd
Mention the unit after the number when you answer.

Kd reading for "MTFPVSLEY" : 123 nM

====

target: HLA-A*01:01; experiment: IEDB peptide-MHC binding, purified MHC/direct/fluorescence; filed as Kd, often an IC50 or EC50 that approximates it; bounds were set here for any values at or beyond the usual limits of such assays; details: source organism: Orthohantavirus andesense
measurement label: Kd

Measured on HLA-A*01:01, "AYDHGNVIL" has a documented Kd of ≥ 20 µM

====

Entries and their pKd values follow.
biological target: HLA-A*02:17; test: IEDB peptide-MHC binding, purified MHC/competitive/radioactivity; filed as Kd, often an IC50 or EC50 that approximates it; bounds were set here for any values at or beyond the usual limits of such assays; details: source organism: Dengue virus 4 Philippines/H241/1956
A value of pKd is the negative decimal logarithm of a concentration given in moles per litre.

Would you please look over these solved cases?
MVLAFITFL; 8.40
FIDGISLGL; 7.25

Entry "MTLWYMWQV" — recorded pKd = 7.56

====

target: HLA-B*15:01; experiment: IEDB peptide-MHC binding, purified MHC/competitive/fluorescence; filed as Kd, often an IC50 or EC50 that approximates it; bounds were set here for any values at or beyond the usual limits of such assays; details: source organism: Vibrio parahaemolyticus AQ3810
measurement label: Kd

GET /value?item= "KVGYFQHGA" &field=Kd returns ≥ 20 µM

====

target: HLA-B*15:01; assay: IEDB peptide-MHC binding, purified MHC/competitive/fluorescence; bounds were set here for any values at or beyond the usual limits of such assays; conditions: source organism: Sudan ebolavirus
measurement label: pIC50
Scale: pIC50 equals -log10([C]), with [C] in mol/L.

MQISTIGIR; 4.58

Entry under test: "TSSYYATSY" . Its pIC50 was 4.84

====

target: HLA-B*15:01; experiment: IEDB peptide-MHC binding, purified MHC/direct/fluorescence; filed as Kd, often an IC50 or EC50 that approximates it; bounds were set here for any values at or beyond the usual limits of such assays; conditions: source organism: Rickettsia sibirica 246
measurement label: Kd

Briefly, Kd measured for "EFVSANLAM" : ≥ 20 µM

====

molecular target: HLA-B*07:02; assay: IEDB peptide-MHC binding, purified MHC/direct/fluorescence; filed as Kd, often an IC50 or EC50 that approximates it; bounds were set here for any values at or beyond the usual limits of such assays; settings: source organism: Yersinia pestis
measurement label: Kd

Fill in: HLA-B*07:02 Kd for "WANDFNHHY" = ≥ 20 µM

====

molecular target: HLA-B*15:09; experiment: IEDB peptide-MHC binding, purified MHC/direct/fluorescence; filed as Kd, often an IC50 or EC50 that approximates it; bounds were set here for any values at or beyond the usual limits of such assays; conditions: source organism: Orthomarburgvirus marburgense
pKd: −log10 of the molar value.
measurement label: pKd

So, "NRWKSWFSY" ? Its pKd was ≤ 4.70

====

target: HLA-A*02:11; assay: IEDB peptide-MHC binding, purified MHC/competitive/fluorescence; filed as Kd, often an IC50 or EC50 that approximates it; bounds were set here for any values at or beyond the usual limits of such assays; settings: source organism: Giardia lamblia ATCC 50803
measurement label: Kd

The measured Kd associated with "DEYGPVFVE" reads ≥ 20 µM

====

biological target: HLA-A*32:01; assay: IEDB peptide-MHC binding, purified MHC/competitive/radioactivity; filed as Kd, often an IC50 or EC50 that approximates it; bounds were set here for any values at or beyond the usual limits of such assays; details: source organism: Dengue virus 4 Dominica/814669/1981
measurement label: Kd (nM)
Output spec: scalar in nM, unitless text.

// Kd lookup, sequence = "SDLKYSWKTW" , result: 683

====

target: HLA-A*31:01; test: IEDB peptide-MHC binding, purified MHC/direct/fluorescence; filed as Kd, often an IC50 or EC50 that approximates it; bounds were set here for any values at or beyond the usual limits of such assays; conditions: source organism: West Nile virus
measurement label: Kd

// sample "FVDVGVSAL" , its Kd was ≥ 20 µM

====

target: HLA-B*58:01; assay: IEDB peptide-MHC binding, purified MHC/direct/fluorescence; filed as Kd, often an IC50 or EC50 that approximates it; bounds were set here for any values at or beyond the usual limits of such assays; conditions: source organism: Corynebacterium glutamicum
measurement label: pKd
# log scale: pKd equals minus log10 of the concentration in mol/L

The measured pKd associated with "FAAAAARTL" reads 5.62

====

target: HLA-C*03:03; experiment: IEDB peptide-MHC binding, purified MHC/direct/fluorescence; filed as Kd, often an IC50 or EC50 that approximates it; bounds were set here for any values at or beyond the usual limits of such assays; conditions: source organism: dengue virus type 4
measurement label: pKd
Note on pKd: it is the negative log10 of concentration, concentration in mol/L.

The recorded pKd for "ILRNPGFAL" is 6.68

====

biological target: HLA-A*03:01; assay: IEDB peptide-MHC binding, purified MHC/direct/fluorescence; filed as Kd, often an IC50 or EC50 that approximates it; bounds were set here for any values at or beyond the usual limits of such assays; settings: source organism: Influenza A virus (A/tern/Australia/1/04(H2N5))
measurement label: Kd

# Kd of "LLTEVETYV" = ≥ 20 µM

Every entry's value here was drawn from the Immune Epitope Database (IEDB).
